# Test system: Hoxa9-Meis1 murine AML cells
# Format: in vivo, mice
# assay.context: mouse, in vivo
endpoint.label: Median Survival days (days)
Answers are plain numbers, in days.

Worked cases, Median Survival days given:
S4: SID-3XNLS-GG linker-HoxA9-GGGG-PBX fusion protein, SEQ ID NO: 31 (protein) MATAVGMNIQLLLEAADYLERREREAEHGYASMLPYDPKKKRKVDPKKKRKVDPKKKRKVGGDPERQVKIWFQNRRMKMKKINGGGGDPVSQVSNWFGNKRIRYKKNIG	69
S1: SID-3XNLS-GG linker-HoxA9-G-PBX fusion protein, SEQ ID NO: 28 (protein) MATAVGMNIQLLLEAADYLERREREAEHGYASMLPYDPKKKRKVDPKKKRKVDPKKKRKVGGDPERQVKIWFQNRRMKMKKINGDPVSQVSNWFGNKRIRYKKNIG	62
S3: Full SID-3XNLS-HFP with GGG linker, SEQ ID NO: 30 / 35 (protein) MATAVGMNIQLLLEAADYLERREREAEHGYASMLPYDPKKKRKVDPKKKRKVDPKKKRKVGGDPERQVKIWFQNRRMKMKKINGGGDPVSQVSNWFGNKRIRYKKNIG	94

Turning to the following molecule.
Briefly, Median Survival days measured for S2: SID-3XNLS-GG linker-HoxA9-GG-PBX fusion protein, SEQ ID NO: 29 (protein) MATAVGMNIQLLLEAADYLERREREAEHGYASMLPYDPKKKRKVDPKKKRKVDPKKKRKVGGDPERQVKIWFQNRRMKMKKINGGDPVSQVSNWFGNKRIRYKKNIG : 67
